Each entry below carries its reported IC50 at 24 h.
assay-comment: MTT cytotoxicity assay in uninduced TBP/Q79-GFP SH-SY5Y cells
Type: cell-based
conditions-used: human
Unit µM implied. Number only.

                                   molecule  measured_property  experimental_value
0  COc1ccc(O)c(/C=C/C(=O)c2ccccc2)c1 [LM-006]       IC50 at 24 h                  56
1  COc1ccc(C(=O)/C=C/c2cc(Br)ccc2O)cc1 [LM-004]       IC50 at 24 h                  54

Attention now shifts to the item below.
Q: Look at this molecule and give its reported IC50 at 24 h. COc1cccc(/C=C/C(=O)c2ccc(O)cc2)c1O [LM-026]
A: 58
